The origin of these recorded values is patent US20210380703A1.

# measured.target: T1, mouse ACVR2A (mouse, UniProt P27038 20-135, limits assumed); further: test concentration or dose not given here
# T1 construct: coated antigen of the initial ELISA
# T1 sequence (P27038 20-135 limits assumed): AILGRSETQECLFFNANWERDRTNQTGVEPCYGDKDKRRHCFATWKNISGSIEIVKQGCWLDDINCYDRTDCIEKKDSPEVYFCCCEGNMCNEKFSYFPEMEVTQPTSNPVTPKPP
# assay.method.text: ELISA
observable: optical density (OD)
Hi! Could you send only the number? It should be in OD, unit omitted.

Record excerpt, results attached:
375_G04 (antibody, V domains shown, Group III) VH: EVQLLESGGGLVQPGGSLRLSCAASGFTFSSYGMNWVRQAPGKGLEWVASINYNSGYTGYADSVKGRFTISRDNSKNTLYLQMNSLRAEDTAVYYCARGANWHDTHLDYWGQGTLVTVSS VL: DIQMTQSPSSLSASVGDRVTITCRASQSIVSYVNWYQQKPGKAPKLLIYAATSLASGVPSRFSGSGSGTDFTLTISSLQPEDFATYYCQQSYDSPLTFGGGTKVEIK : 3.29
368_A04 (antibody, V domains shown, Group III) VH: EVQLLESGGGLVQPGGSLRLSCAASGFTFDDYSMNWVRQAPGKGLEWVAGINYNGGYKSYADSVKGRFTISRDNSKNTLYLQMNSLRAEDTAVYYCARGANWHDTHLDYWGQGTLVTVSS VL: DIQMTQSPSSLSASVGDRVTITCRASQSILTYLNWYQQKPGKAPKLVIYAVTSRASGVPSRFSGSGSGTDFTLTISSLQPEDFATYYCQQSYELPLTFGGGTKVEIK : 2.35
373_B05 (antibody, V domains shown, Group III) VH: EVQLLESGGGLVQPGGSLRLSCAASGFTFSDYSMNWVRQAPGKGLEWVSNINYNGGYKSYADSVKGRFTISRDNSKNTLYLQMNSLRAEDTAVYYCARGANWHDTALDYWGQGTLVTVSS VL: DIQMTQSPSSLSASVGDRVTITCRASQSIVTYLNWYQQKPGKAPKLVIYAATSRASGVPSRFSGSGSGTDFTLTISSLQPEDFATYYCQQSYSNPLTFGGGTKVEIK : 3.53
370_H07 (antibody, V domains shown, Group III) VH: EVQLLESGGGLVQPGGSLRLSCAASGFTFSSYSMNWVRQAPGKGLEWVAGINYNGGYKSYADSVKGRFTISRDNSKNTLYLQMNSLRAEDTAVYYCARGANWHDTALDYWGQGTLVTVSS VL: DIQMTQSPSSLSASVGDRVTITCRASQSILSYLNWYQQKPGKAPKLLIYAATSLASGVPSRFSGSGSGTDFTLTISSLQPEDFATYYCQQSDSSPLTFGGGTKVEIK : 3.25

Query: Requested read-out: optical density. Entry: 373_F12 (antibody, V domains shown, Group III) VH: EVQLLESGGGLVQPGGSLRLSCAASGFTFSSYSMNWVRQAPGKGLEWVSNINYNGGYTGYADSVKGRFTISRDNSKNTLYLQMNSLRAEDTAVYYCARGANWHDTALDYWGQGTLVTVSS VL: DIQMTQSPSSLSASVGDRVTITCRASQSISTYLNWYQQKPGKAPKLVIYAATSRASGVPSRFSGSGSGTDFTLTISSLQPEDFATYYCQQSYETPLTFGGGTKVEIK
Response: 3.22

Query: Requested read-out: optical density. Entry: 373_A03 (antibody, V domains shown, Group III) VH: EVQLLESGGGLVQPGGSLRLSCAASGFTFSDYSMNWVRQAPGKGLEWVANINYNGGYTGYADSVKGRFTISRDNSKNTLYLQMNSLRAEDTAVYYCARGANWHDTALDYWGQGTLVTVSS VL: DIQMTQSPSSLSASVGDRVTITCRASQSILSYLNWYQQKPGKAPKLVIYAATSRASGVPSRFSGSGSGTDFTLTISSLQPEDFATYYCQQSYDNPLTFGGGTKVEIK
Response: 3.63

Query: Requested read-out: optical density. Entry: 371_H05 (antibody, V domains shown, Group III) VH: EVQLLESGGGLVQPGGSLRLSCAASGFTFSSYGMNWVRQAPGKGLEWVSGINYNSGYKSYADSVKGRFTISRDNSKNTLYLQMNSLRAEDTAVYYCARGANWHDTALDYWGQGTLVTVSS VL: DIQMTQSPSSLSASVGDRVTITCRASQSIISYLNWYQQKPGKAPKLLIYAATSLASGVPSRFSGSGSGTDFTLTISSLQPEDFATYYCQQSYSLPLTFGGGTKVEIK
Response: 1.25

Query: Requested read-out: optical density. Entry: 375_F02 (antibody, V domains shown, Group III) VH: EVQLLESGGGLVQPGGSLRLSCAASGFTFSSYSMNWVRQAPGKGLEWVASINYNSGYTSYADSVKGRFTISRDNSKNTLYLQMNSLRAEDTAVYYCARGANWHDTHLDYWGQGTLVTVSS VL: DIQMTQSPSSLSASVGDRVTITCRASQSILSYLNWYQQKPGKAPKLLIYAATSRASGVPSRFSGSGSGTDFTLTISSLQPEDFATYYCQQSYDSPLTFGGGTKVEIK
Response: 3.65

Query: Requested read-out: optical density. Entry: 372_E01 (antibody, V domains shown, Group III) VH: EVQLLESGGGLVQPGGSLRLSCAASGFTFDDYSMNWVRQAPGKGLEWVSGINYNGGYKGYADSVKGRFTISRDNSKNTLYLQMNSLRAEDTAVYYCARGANWHDTALDYWGQGTLVTVSS VL: DIQMTQSPSSLSASVGDRVTITCRASQSIVSYLNWYQQKPGKAPKLVIYAATSRHSGVPSRFSGSGSGTDFTLTISSLQPEDFATYYCQQSYDSPLTFGGGTKVEIK
Response: 3.34

Query: Requested read-out: optical density. Entry: 374_F06 (antibody, V domains shown, Group III) VH: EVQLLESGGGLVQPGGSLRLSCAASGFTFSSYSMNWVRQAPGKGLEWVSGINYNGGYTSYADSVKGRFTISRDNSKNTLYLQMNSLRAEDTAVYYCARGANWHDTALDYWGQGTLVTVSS VL: DIQMTQSPSSLSASVGDRVTITCRASQSIISYVNWYQQKPGKAPKLVIYAATSLHSGVPSRFSGSGSGTDFTLTISSLQPEDFATYYCQQSYSTPLTFGGGTKVEIK
Response: 3.7
